# MEASUREMENT_TARGET: OR51B6 peptide/HLA-A*02:01 complex (recombinant) (human)
# ASSAY_EXPLANATION: SPR
MEASURE: binding result

- AS170036 VL1VH1-VLH98V (scFv) scFv: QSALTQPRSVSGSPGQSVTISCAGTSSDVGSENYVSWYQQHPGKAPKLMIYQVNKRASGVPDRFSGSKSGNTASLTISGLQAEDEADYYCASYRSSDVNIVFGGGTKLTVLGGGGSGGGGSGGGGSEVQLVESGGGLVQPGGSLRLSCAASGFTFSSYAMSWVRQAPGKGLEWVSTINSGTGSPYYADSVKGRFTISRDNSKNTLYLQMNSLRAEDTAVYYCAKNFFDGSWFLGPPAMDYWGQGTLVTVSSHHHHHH: no binding
- AS170036 VL1VH1-VLH98P (scFv) scFv: QSALTQPRSVSGSPGQSVTISCAGTSSDVGSENYVSWYQQHPGKAPKLMIYQVNKRASGVPDRFSGSKSGNTASLTISGLQAEDEADYYCASYRSSDPNIVFGGGTKLTVLGGGGSGGGGSGGGGSEVQLVESGGGLVQPGGSLRLSCAASGFTFSSYAMSWVRQAPGKGLEWVSTINSGTGSPYYADSVKGRFTISRDNSKNTLYLQMNSLRAEDTAVYYCAKNFFDGSWFLGPPAMDYWGQGTLVTVSSHHHHHH: no binding
- AS170036 VL1VH1-VLH98A (scFv) scFv: QSALTQPRSVSGSPGQSVTISCAGTSSDVGSENYVSWYQQHPGKAPKLMIYQVNKRASGVPDRFSGSKSGNTASLTISGLQAEDEADYYCASYRSSDANIVFGGGTKLTVLGGGGSGGGGSGGGGSEVQLVESGGGLVQPGGSLRLSCAASGFTFSSYAMSWVRQAPGKGLEWVSTINSGTGSPYYADSVKGRFTISRDNSKNTLYLQMNSLRAEDTAVYYCAKNFFDGSWFLGPPAMDYWGQGTLVTVSSHHHHHH: no binding
